These measurements were taken from patent US20250243281A1.

- target: T1, hCLEC12B (human, UniProt Q2HXU8 1-276)
- T1 construct: Overexpressed on HEK293 cells
- T1 sequence: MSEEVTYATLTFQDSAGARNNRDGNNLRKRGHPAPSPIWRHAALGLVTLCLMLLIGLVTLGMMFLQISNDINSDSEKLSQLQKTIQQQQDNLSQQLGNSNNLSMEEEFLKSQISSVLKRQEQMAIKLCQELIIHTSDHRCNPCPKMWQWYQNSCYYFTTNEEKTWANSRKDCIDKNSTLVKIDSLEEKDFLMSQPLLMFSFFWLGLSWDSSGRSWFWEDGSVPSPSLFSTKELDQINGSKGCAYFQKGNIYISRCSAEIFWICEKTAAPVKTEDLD
- assayMethodText: flow cytometry, HEK293 transfectants, 100 nM antibody;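 note: antibody applied at a saturating level and incubated with cells for 30 min at room temperature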
parameterMeasured: % of CD161 binding (%)
Numeric only. Scale: %

[[record]]
binder = "Ab15 (antibody, human IgG1, V domains shown, IgG purified from yeast culture) VH: QVQLVESGGGLVKPGGSLRLSCAASGFTFPQYYMSWIRQAPGKGLEWVSYISPSGATIYYADSVKGRFTISRDNAKNSLYLQMNSLRAEDTAVYYCARSLMSTGTHLYFDLWGRGTLVTVSS VL: DIQLTQSPSSVSASVGDRVTITCRASQGISSWLAWYQQKPGKAPKLLIYAASSLQSGVPSRFSGSGSGTDFTLTISSLQPEDFATYYCQQVTSTPPYTFGGGTKVEIK"
reading = 0.071

[[record]]
binder = "Ab4 (antibody, human IgG1, V domains shown, IgG purified from yeast culture) VH: EVQLLESGGGLVQPGGSLRLSCAASGFTFERYAMSWVRQAPGKGLEWVSAISAVGGTTKYADSVKGRFTISRDNSKNTLYLQMNSLRAEDTAVYYCAKPLDSSLWADFDAWGRGTLVTVSS VL: DIQLTQSPSSVSASVGDRVTITCRASQGISSWLAWYQQKPGKAPKLLIYAASGLQSGVPSRFSGSGSGTDFTLTISSLQPEDFATYYCQQASYLPITFGGGTKVEIK"
reading = 0.074

[[record]]
binder = "Ab9 (antibody, human IgG1, V domains shown) VH: EVQLLESGGGLVQPGGSLRLSCAASGFTFSPYAMSWVRQAPGKGLEWVSAISASGGTTYYADSVKGRFTISRDNSKNTLYLQMNSLRAEDTAVYYCAKPLDSSFWADFDLWGRGTLVTVSS VL: DIQLTQSPSSVSASVGDRVTITCRASQGISSWLAWYQQKPGKAPKLLIYAASSLQSGVPSRFSGSGSGTDFTLTISSLQPEDFATYYCQQHSVLPITFGGGTKVEIK"
reading = 0.025

[[record]]
binder = "Ab6 (antibody, human IgG1, V domains shown, IgG purified from yeast culture) VH: EVQLLESGGGLVQPGGSLRLSCAASGFTFGQYAMSWVRQAPGKGLEWVSAISAAGGTTYYADSVKGRFTISRDNSKNTLYLQMNSLRAEDTAVYYCAKPLDSSQWADFDLWGRGTLVTVSS VL: DIQLTQSPSSVSASVGDRVTITCRASQGISSWLAWYQQKPGKAPKLLIYAASSLQSGVPSRFSGSGSGTDFTLTINSLQPEDFATYYCQQAWVLPITFGGGTKVEIK"
reading = 0.011

[[record]]
binder = "Ab20 (antibody, human IgG1, V domains shown, IgG purified from yeast culture) VH: QVQLVESGGGLVQPGGSLRLSCAASGFTFSQYYMSWIRQAPGKGLEWVSYISPSGATIAYADSVKGRFTISRDNAKNSLYLQMNSLRAEDTAVYYCARSLMSTGTHLYFDLWGRGTLVTVSS VL: DIQLTQSPSSVSASVGDRVTITCRASQGISSWLAWYQQKPGKAPKLLIYAASVLQSGVPSRFSGSGSGTDFTLTISSLQPEDFATYYCQQVTSFLPYTFGGGTKVEIK"
reading = 0.061


Query :: Determine from records and report % of CD161 binding for Ab11 (antibody, human IgG1, V domains shown, IgG purified from yeast culture) VH: EVQLLESGGGLVQPGGSLRLSCAASGFTFSQYAMSWVRQAPGKGLEWVSAISAAGGTTYYADSVKGRFTISRDNSKNTLYLQMNSLRAEDTAVYYCAKPLDSSQWADFDLWGRGTLVTVSS VL: DIQLTQSPSSVSASVGDRVTITCRASQGIYSWLAWYQQKPGKAPKLLIYAASSLQSGVPSRFSGSGSGTDFTLTISSLQPEDFATYYCQQASDLPITFGGGTKVEIK
Result :: -0.003

Query :: Find the measured % of CD161 binding of Ab7 (antibody, human IgG1, V domains shown, IgG purified from yeast culture) VH: EVQLLESGGGLVQPGGSLRLSCAASGFTFGQYAMSWVRQAPGKGLEWVSAISAAGGTTYYADSVKGRFTISRDNSKNTLYLQMNSLRAEDTAVYYCAKPLDSSQWADFDLWGRGTLVTVSS VL: DIQLTQSPSSVSASVGDRVTITCRASQGISSWLAWYQQKPGKAPKLLIYAASFLQSGVPSRFSGSGSGTDFTLTISSLQPEDFATYYCQQASVLPITFGGGTKVEIK and report it.
Result :: 0.011

Query :: Provide only the value of recorded % of CD161 binding for Ab10 (antibody, human IgG1, V domains shown, IgG purified from yeast culture) VH: EVQLLESGGGLVQPGGSLRLSCAASGFTFSQYAMSWVRQAPGKGLEWVSAISAVGGSTYYADSVKGRFTISRDNSKNTLYLQMNSLRAEDTAVYYCAKPLDSSQWADFDLWGRGTLVTVSS VL: DIQLTQSPSSVSASVGDRVTITCRASQDISSWLAWYQQKPGKAPKLLIYAASALQSGVPSRFSGSGSGTDFTLTISSLQPEDFATYYCQQADVLPITFGGGTKVEIK
Result :: -0.004

Query :: Supply recorded % of CD161 binding for Ab5 (antibody, human IgG1, V domains shown, IgG purified from yeast culture) VH: EVQLLESGGGLVQPGGSLRLSCAASGFTFGQYAMSWVRQAPGKGLEWVSAISAVGGTTAYADSVKGRFTISRDNSKNTLYLQMNSLRAEDTAVYYCAKPLDSSLWADFQLWGRGTLVTVSS VL: DIQLTQSPSSVSASVGDRVTITCRASQDISSWLAWYQQKPGKAPKLLIYFASSLQSGVPSRFSGSGSGTDFTLTISSLQPEDFATYYCQQASKLPITFGGGTKVEIK here.
Result :: 0.056

Query :: Indicate the recorded % of CD161 binding value for this binder: Ab8 (antibody, human IgG1, V domains shown, IgG purified from yeast culture) VH: EVQLLESGGGLVQPGGSLRLSCAASGFTFGTFAMSWVRQAPGKGLEWVSAISGVGGTTYYADSVKGRFTISRDNSKNTLYLQMNSLRAEDTAVYYCAKPLDSSFWADFDLWGRGTLVTVSS VL: DIQLTQSPSSVSASVGDRVTITCRASQTISSWLAWYQQKPGKAPKLLIYAASSLQSGVPSRFSGSGSGTDFTLTISSLQPEDFATYYCQQQSVLPITFGGGTKVEIK
Result :: 0.049

Query :: Annotate the binder Ab3 (antibody, human IgG1, V domains shown, IgG purified from yeast culture) VH: EVQLLESGGGLVQPGGSLRLSCAASGFTFERYAMSWVRQAPGKGLEWVSAISAAGGTTYYADSVKGRFTISRDNSKNTLYLQMNSLRAEDTAVYYCAKPLDSSQWADFDLWGRGTLVTVSS VL: DIQLTQSPSSVSASVGDRVTITCRASQDISSWLAWYQQKPGKAPKFLIYAASALQSGVPSRFSGSGSGTDFTLTISSLQPEDFATYYCQQALVLPITFGGGTKVEIK with its measured % of CD161 binding.
Result :: -0.042
